Tested on: UT5600 cells (NTR−) lysogens
Assay: Replica-plate screening of mutant NTR-expressing lysogens on increasing CB1954 (growth score)
Type: cell-based, E. coli
Set-up: key: 0: Good growth on all concentrations of CB 1954 = vector; Good growth on 100 and 200, faint on 300, ring of growth on 400 μM; Good growth on 100 and 200, ring growth on 300, none or very faint on 400 μM; Good growth on 100, faint to good on 200, none or very faint on 300 and 400 μM; 4: Good growth on 100 μM, none to ring growth on 200 μM = wild type; Good growth on 50 μM, ring on 100 μM, none on 200, 300 or 400 μM; 6: Faint growth on 50 μM, ring on 100 μM; 7: Good growth on 50 μM, none on 100 μM; 8: Ring growth on 50 μM, none on 100 μM; 9: None or very faint growth on 50 μM, none on 100 μM; 10: None or ring growth on 35 μM
Details: growth of lysogens on agar with kanamycin, IPTG and 0-400 μM CB1954; wild type = 4, higher = more sensitive
Result type: Score
Give a plain numeric answer without units written out.

For the molecule shown here, N71D (protein) MDIISVALKRHSTKAFDASKKLTPEQAEQIKTLLQYSPSSTNSQPWHFIVASTEEGKARVAKSAAGNYVFDERKMLDASHVVVFCAKTAMDDVWLKLVVDQEDADGRFATPEAKAANDKGRKFFADMHRKDLHDDAEWMAKQVYLNVGNFLLGVAALGLDAVPIEGFDAAILDAEFGLKEKGYTSLVVVPVGHHSVEDFNATLPKSRLPQNITLTEV , give the reported Score.
5
